Test system: APJ homodimer
Assay: MALDI-TOF MS of immunoprecipitated APJ complex after treatment with HIV TAT-TMD interference peptides
Type: binding, human
Conditions: peptide 4 μM, 60 min, 37 °C; MALDI-TOF
recorded-metric: binding to APJ (peptides encoding TMDs, MS)

IFVNMYASVFCLTGLSFDRYLAIYGRKKRRQRRR [TMD3, HIV TAT-fused interference peptide derived from human APJ transmembrane domain 3]    can bind to APJ
YGRKKRRQRRRFIASLAVADLTFVVTLPLWATYT [TMD2, HIV TAT-fused interference peptide derived from human APJ transmembrane domain 2]    can bind to APJ
PAIYMLVFLLGTTGNGLVLWTVFYGRKKRRQRRR [TMD1, HIV TAT-fused interference peptide derived from human APJ transmembrane domain 1]    can bind to APJ
YGRKKRRQRRRVSGAVATAVLWVLAALLAMPVMV [TMD4, HIV TAT-fused interference peptide derived from human APJ transmembrane domain 4]    can bind to APJ

---

Test system: APJ dimer (APJ-Rluc / APJ-EGFP)
Test: BRET, effect of interference peptides on APJ homodimers
Format: cell-based, human
Conditions: CHO cells, APJ-Rluc:APJ-EGFP 1:3, peptide 4 μM, 37 °C; four independent experiments in triplicate
Text: Figure 7 The effect of interference peptides on apelin receptor (APJ) dimers. […] BRET[1] was detected as described above.
recorded-metric: effect on APJ dimer BRET signals

YGRKKRRQRRRRLLSIIVVLVVTFALCWMPYHLV [TMD6, HIV TAT-fused interference peptide derived from human APJ transmembrane domain 6]    no significant effect
LMNIFPYCTCISYVNSCLNPFLYYGRKKRRQRRR [TMD7, HIV TAT-fused interference peptide derived from human APJ transmembrane domain 7]    no significant effect
VSSTTVGFVVPFTIMLTCYFFIAYGRKKRRQRRR [TMD5, HIV TAT-fused interference peptide derived from human APJ transmembrane domain 5]    no significant effect

Source listed as paper PMC5238433.
